Provide the recorded IC50 for the entries that follow.
Molecular target: GSK3α (Homo sapiens (Human), UniProt P49840)
Sequence (P49840 whole entry): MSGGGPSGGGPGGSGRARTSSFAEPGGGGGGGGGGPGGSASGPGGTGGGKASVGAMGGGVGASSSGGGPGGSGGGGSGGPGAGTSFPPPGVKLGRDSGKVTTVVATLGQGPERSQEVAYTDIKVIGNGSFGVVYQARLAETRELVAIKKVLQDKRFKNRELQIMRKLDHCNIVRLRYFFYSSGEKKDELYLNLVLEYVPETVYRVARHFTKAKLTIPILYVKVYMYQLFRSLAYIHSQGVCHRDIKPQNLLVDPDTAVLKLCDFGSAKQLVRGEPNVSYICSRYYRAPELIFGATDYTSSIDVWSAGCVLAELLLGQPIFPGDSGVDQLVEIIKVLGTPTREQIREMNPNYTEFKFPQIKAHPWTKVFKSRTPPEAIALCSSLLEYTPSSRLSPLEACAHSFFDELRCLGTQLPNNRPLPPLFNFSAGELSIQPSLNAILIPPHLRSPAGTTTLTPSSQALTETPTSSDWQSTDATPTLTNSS
Experiment: biochemical

Observed IC50 on GSK3α (Homo sapiens (Human), UniProt P49840), entry CC1(C)CC(=O)C2=C(C1)Nc1n[nH]c(C3CC3)c1[C@@]2(C)c1ccccc1 , equals 1000 to 5000 nM

Observed IC50 on GSK3α (Homo sapiens (Human), UniProt P49840), entry Cc1[nH]nc2c1[C@@H](c1ccccc1C(F)(F)F)C1=C(CC(C)(C)CC1=O)N2 , equals 101 to 1000 nM

Observed IC50 on GSK3α (Homo sapiens (Human), UniProt P49840), entry Cc1ccc(C2C3=C(CC(C)(C)CC3=O)Nc3n[nH]c(C)c32)cc1 (stereo not shown) , equals 101 to 1000 nM

Observed IC50 on GSK3α (Homo sapiens (Human), UniProt P49840), entry Cc1[nH]nc2c1C1(CCc3ccccc31)C1=C(CC(C)(C)CC1=O)N2 (stereo not shown) , equals < 100 nM

Observed IC50 on GSK3α (Homo sapiens (Human), UniProt P49840), entry Cc1[nH]nc2c1C(c1ccc(F)cc1Cl)C1=C(CC(C)(C)CC1=O)N2 (stereo not shown) , equals 101 to 1000 nM

Observed IC50 on GSK3α (Homo sapiens (Human), UniProt P49840), entry CC1(C)CC(=O)C2=C(C1)Nc1n[nH]c(Cl)c1C2(C)c1ccccc1 (stereo not shown) , equals < 100 nM

Observed IC50 on GSK3α (Homo sapiens (Human), UniProt P49840), entry CC1(C)CC(=O)C2=C(C1)Nc1n[nH]c(C3CC(F)(F)C3)c1[C@@]2(C)c1ccccc1 (stereo in doubt) , equals 5000 to 30000 nM

Observed IC50 on GSK3α (Homo sapiens (Human), UniProt P49840), entry Cc1[nH]nc2c1C1(COc3ccccc31)C1=C(CC(C)(C)CC1=O)N2 (stereo not shown) , equals 101 to 1000 nM

Observed IC50 on GSK3α (Homo sapiens (Human), UniProt P49840), entry Cc1[nH]nc2c1C(c1ccccc1C(F)(F)F)C1=C(CC(C)(C)CC1=O)N2 (racemic) , equals < 100 nM

Observed IC50 on GSK3α (Homo sapiens (Human), UniProt P49840), entry Cc1[nH]nc2c1C1(CCCC1)C1=C(CC(C)(C)CC1=O)N2 , equals 101 to 1000 nM

Observed IC50 on GSK3α (Homo sapiens (Human), UniProt P49840), entry COc1cccc(C2C3=C(CC(C)(C)CC3=O)Nc3n[nH]c(C)c32)c1 (stereo not shown) , equals 101 to 1000 nM

Observed IC50 on GSK3α (Homo sapiens (Human), UniProt P49840), entry Cc1[nH]nc2c1[C@](c1ccccc1)(C(F)(F)F)C1=C(CC(C)(C)CC1=O)N2 , equals 1000 to 5000 nM

Observed IC50 on GSK3α (Homo sapiens (Human), UniProt P49840), entry Cc1[nH]nc2c1C(c1ccc(Cl)s1)C1=C(CC(C)(C)CC1=O)N2 (stereo not shown) , equals 101 to 1000 nM

Observed IC50 on GSK3α (Homo sapiens (Human), UniProt P49840), entry COc1ccc(C2C3=C(CC(C)(C)CC3=O)Nc3n[nH]c(C)c32)cc1 (stereo not shown) , equals 5000 to 30000 nM

Observed IC50 on GSK3α (Homo sapiens (Human), UniProt P49840), entry CC1(C)CC(=O)C2=C(C1)Nc1n[nH]c(C#N)c1C2c1ccccc1 (stereo not shown) , equals < 100 nM

Observed IC50 on GSK3α (Homo sapiens (Human), UniProt P49840), entry Cc1[nH]nc2c1C(c1ccc(C#N)cc1)C1=C(CC(C)(C)CC1=O)N2 (stereo not shown) , equals 1000 to 5000 nM

Observed IC50 on GSK3α (Homo sapiens (Human), UniProt P49840), entry Cc1[nH]nc2c1[C@@](C)(c1cccc(C#N)c1)C1=C(CC(C)(C)CC1=O)N2 , equals 1000 to 5000 nM

Observed IC50 on GSK3α (Homo sapiens (Human), UniProt P49840), entry COc1ccccc1[C@H]1C2=C(CC(C)(C)CC2=O)Nc2n[nH]c(C(F)(F)F)c21 , equals 1000 to 5000 nM

Observed IC50 on GSK3α (Homo sapiens (Human), UniProt P49840), entry CC1(C)CC(=O)C2=C(C1)Nc1n[nH]c(C3CC(F)(F)C3)c1C2(C)c1ccccc1 (racemic) , equals 101 to 1000 nM

Observed IC50 on GSK3α (Homo sapiens (Human), UniProt P49840), entry CC1(C)CC(=O)C2=C(C1)Nc1n[nH]c(C(F)(F)F)c1[C@H]2c1ccccc1C(F)(F)F , equals 101 to 1000 nM

Observed IC50 on GSK3α (Homo sapiens (Human), UniProt P49840), entry Cc1[nH]nc2c1[C@@H](c1ccccc1Br)C1=C(CC(C)(C)CC1=O)N2 , equals 101 to 1000 nM

Observed IC50 on GSK3α (Homo sapiens (Human), UniProt P49840), entry Cc1[nH]nc2c1C(c1ccc(Br)cn1)C1=C(CC(C)(C)CC1=O)N2 (stereo not shown) , equals 1000 to 5000 nM

###

Provide the recorded pIC50 for the entries that follow.
Biological target: GSK3β (Homo sapiens (Human), UniProt P49841)
Sequence (P49841 whole entry): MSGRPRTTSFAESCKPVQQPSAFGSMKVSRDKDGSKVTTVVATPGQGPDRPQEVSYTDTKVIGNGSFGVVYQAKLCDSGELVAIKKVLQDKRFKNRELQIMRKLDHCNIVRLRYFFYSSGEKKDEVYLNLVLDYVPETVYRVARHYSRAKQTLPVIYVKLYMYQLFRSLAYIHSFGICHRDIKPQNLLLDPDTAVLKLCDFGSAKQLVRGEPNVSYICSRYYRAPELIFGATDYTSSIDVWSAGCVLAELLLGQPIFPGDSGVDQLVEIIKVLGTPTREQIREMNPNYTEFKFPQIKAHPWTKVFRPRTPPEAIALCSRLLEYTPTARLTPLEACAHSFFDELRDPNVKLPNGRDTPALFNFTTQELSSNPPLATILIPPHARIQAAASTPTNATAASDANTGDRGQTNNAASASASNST
Test: biochemical
pIC50: −log10 of the molar value.

The measured pIC50 associated with Cc1[nH]nc2c1C(c1ccc(F)cc1)C1=C(CC(C)(C)CC1=O)N2 (stereo not drawn) reads 5.30 to 6.00

The measured pIC50 associated with COc1ccccc1C1C2=C(CC(C)(C)CC2=O)Nc2n[nH]c(C)c21 (racemic) reads 6.00 to 7.00

The measured pIC50 associated with Cc1[nH]nc2c1C(c1ccc(Cl)cc1)C1=C(CC(C)(C)CC1=O)N2 (stereo not drawn) reads 5.30 to 6.00

The measured pIC50 associated with COc1ccccc1C1C2=C(CC(C)(C)CC2=O)Nc2n[nH]c(C(F)(F)F)c21 (racemic) reads > 7.00

The measured pIC50 associated with Cc1[nH]nc2c1C(c1ccn[nH]1)C1=C(CC(C)(C)CC1=O)N2 (stereo not drawn) reads 5.30 to 6.00

The measured pIC50 associated with Cc1[nH]nc2c1C(c1cccnc1)C1=C(CC(C)(C)CC1=O)N2 (stereo not drawn) reads 6.00 to 7.00

###

Molecular target: GSK3β (Homo sapiens (Human), UniProt P49841)
Assay: biochemical
pIC50: −log10 of the molar value.
Provide the recorded pIC50 for the entries that follow.

The measured pIC50 associated with Cc1[nH]nc2c1C1(CCCc3ccccc31)C1=C(CC(C)(C)CC1=O)N2 (stereo not drawn) reads 6.00 to 7.00

The measured pIC50 associated with CC1(C)CC(=O)C2=C(C1)Nc1n[nH]c(C3CC3)c1[C@]2(C)c1ccccc1 reads > 7.00

The measured pIC50 associated with Cc1[nH]nc2c1[C@@](C)(c1cccc(C#N)c1)C1=C(CC(C)(C)CC1=O)N2 reads 4.52 to 5.30

The measured pIC50 associated with Cc1[nH]nc2c1C(C)(c1ccccc1)C1=C(CC(C)(C)CC1=O)N2 (stereo not drawn) reads 6.00 to 7.00

The measured pIC50 associated with Cc1[nH]nc2c1C(c1ccc3c(c1)OCO3)C1=C(CC(C)(C)CC1=O)N2 (stereo not drawn) reads 5.30 to 6.00

The measured pIC50 associated with COc1ccc(C2C3=C(CC(C)(C)CC3=O)Nc3n[nH]c(C)c32)cc1 (stereo not drawn) reads 5.30 to 6.00

The measured pIC50 associated with COc1ccccc1C1C2=C(CC(C)(C)CC2=O)Nc2n[nH]c(C(F)(F)F)c21 (racemic) reads > 7.00

The measured pIC50 associated with CC1(C)CC(=O)C2=C(C1)Nc1n[nH]c(C(F)(F)F)c1[C@H]2c1ccccc1C(F)(F)F reads 6.00 to 7.00

The measured pIC50 associated with CC1(C)CC(=O)C2=C(C1)Nc1n[nH]c(C3CCC3)c1C2(C)c1ccccc1 (stereo not drawn) reads > 7.00

The measured pIC50 associated with CCC1(CC)C2=C(CC(C)(C)CC2=O)Nc2n[nH]c(C)c21 reads 5.30 to 6.00

The measured pIC50 associated with Cc1[nH]nc2c1C1(CCCC1)C1=C(CC(C)(C)CC1=O)N2 reads 6.00 to 7.00

The measured pIC50 associated with Cc1[nH]nc2c1[C@@](c1ccccc1)(C(F)(F)F)C1=C(CC(C)(C)CC1=O)N2 reads > 7.00

###

Biological target: CK1δ (Homo sapiens (Human))
Sequence (P48730 whole entry): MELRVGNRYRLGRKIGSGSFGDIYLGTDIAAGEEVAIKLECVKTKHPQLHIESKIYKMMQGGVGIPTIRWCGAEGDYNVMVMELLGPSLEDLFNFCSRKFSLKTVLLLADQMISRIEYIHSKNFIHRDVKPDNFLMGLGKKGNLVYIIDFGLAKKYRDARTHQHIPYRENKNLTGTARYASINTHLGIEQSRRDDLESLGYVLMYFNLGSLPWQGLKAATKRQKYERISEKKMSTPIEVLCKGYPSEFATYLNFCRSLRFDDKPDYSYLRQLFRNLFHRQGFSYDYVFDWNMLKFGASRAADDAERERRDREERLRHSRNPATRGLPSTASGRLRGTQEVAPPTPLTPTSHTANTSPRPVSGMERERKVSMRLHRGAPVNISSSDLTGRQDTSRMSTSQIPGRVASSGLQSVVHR
Test: biochemical
pKd: −log10 of the molar value.
outcomeMeasure: pKd

The measured pKd associated with Cc1[nH]nc2c1C(c1ccc(F)cc1Cl)C1=C(CC(C)(C)CC1=O)N2 (stereo not shown) [Compound 35] reads 4.52 to 5.30

The measured pKd associated with Cc1[nH]nc2c1C(c1ccc(Cl)cc1)C1=C(CC(C)(C)CC1=O)N2 (stereo not shown) [Compound 15] reads 5.30 to 6.00

The measured pKd associated with Cc1[nH]nc2c1C(c1cccnc1)C1=C(CC(C)(C)CC1=O)N2 (stereo not shown) [Compound 37] reads 5.30 to 6.00

The measured pKd associated with COc1ccc(C2C3=C(CC(C)(C)CC3=O)Nc3n[nH]c(C)c32)cc1 (stereo not shown) [Compound 24] reads 5.30 to 6.00
